- test.system: AXL (human catalytic domain) (Homo sapiens)
- Construct: purchased Upstate Ltd. 14-512
- assay: AXL (human catalytic domain) Enzyme Activity Assay (IMAP fluorescence polarisation)
- Assay type: biochemical
- condition: further data set (WW-001 through WW-169, XX-001 through XX-469, YY-001 through YY-016, ZZ-001 through ZZ-003); 150 μM ATP
pIC50: −log10 of the molar value.
experimental.readout: pIC50

COc1ccc(-c2nccc3nc(Nc4ccc(OCCN5CCCCC5)cc4)nn23)cc1 [YY-002] : ≥ 7.00
Cc1ccc(-c2cccc3nc(Nc4ccc(OCCCN5CCCCC5)cc4)nn23)cc1F [XX-421] : 6.00 to 7.00
O=C(Nc1nc2cccc(-c3ccc(OC(F)(F)F)cc3)n2n1)C1CC1 [WW-099] : 5.00 to 6.00
c1cc(-c2ccncc2)n2nc(Nc3ccc(OCCN4CCCC4)cc3)nc2c1 [XX-219] : 5.00 to 6.00

Item: CCn1cc(-c2cccc3nc(Nc4ccc(OCCN5CCCC5)cc4)nn23)cn1 [XX-315] | pIC50: 6.00 to 7.00

Item: O=C(Nc1nc2cccc(-c3ccc(Oc4ccccc4)cc3)n2n1)C1CC1 [WW-162] | pIC50: 5.00 to 6.00

Item: Clc1cccc(CNc2ccc(-c3cccc4nc(Nc5ccc(OCCN6CCCC6)cc5)nn34)cc2)c1 [XX-223] | pIC50: 5.00 to 6.00

Item: CN1CCN(c2ccc(-c3cccc4nc(NC(=O)C5CC5)nn34)cc2)CC1 [WW-003] | pIC50: 5.00 to 6.00

Item: CCn1cc(-c2ccc(-c3cccc4nc(Nc5ccc(OCCN6CCCC6)cc5)nn34)cc2)cn1 [XX-191] | pIC50: 6.00 to 7.00

###

- test.system: AXL (human catalytic domain) (Homo sapiens)
- Construct: purchased Upstate Ltd. 14-512
- assay: AXL (human catalytic domain) Enzyme Activity Assay (IMAP fluorescence polarisation)
- Type: biochemical
- condition: first data set; recombinant AXL isoform 1 aa473-894, 150 μM ATP
pIC50: −log10 of the molar value.
The reader will find reported pIC50 values listed item by item below.

Item: COc1ccc(-c2cccc3nc(NC(=O)C4CC4)nn23)cc1OC | pIC50: 5.00 to 6.00

Item: COc1ccc(-c2cccc3nc(Nc4ccc(OC)nc4)nn23)cc1 | pIC50: 5.00 to 6.00

Item: CN1CCN(c2ccc(-c3cccc4nc(NC(=O)C5CC5)nn34)cc2)CC1 | pIC50: 5.00 to 6.00

Item: O=C(Nc1nc2cccc(-c3cccc(-n4cccn4)c3)n2n1)C1CC1 | pIC50: 5.00 to 6.00

Item: NC(=O)COc1ccc(Nc2nc3cccc(-c4ccc5c(c4)OCCO5)n3n2)cc1 | pIC50: > 6.00

###

- test.system: AXL (human catalytic domain) (Homo sapiens, UniProt P30530)
- Construct: purchased Upstate Ltd. 14-512
- Sequence (P30530 473-894): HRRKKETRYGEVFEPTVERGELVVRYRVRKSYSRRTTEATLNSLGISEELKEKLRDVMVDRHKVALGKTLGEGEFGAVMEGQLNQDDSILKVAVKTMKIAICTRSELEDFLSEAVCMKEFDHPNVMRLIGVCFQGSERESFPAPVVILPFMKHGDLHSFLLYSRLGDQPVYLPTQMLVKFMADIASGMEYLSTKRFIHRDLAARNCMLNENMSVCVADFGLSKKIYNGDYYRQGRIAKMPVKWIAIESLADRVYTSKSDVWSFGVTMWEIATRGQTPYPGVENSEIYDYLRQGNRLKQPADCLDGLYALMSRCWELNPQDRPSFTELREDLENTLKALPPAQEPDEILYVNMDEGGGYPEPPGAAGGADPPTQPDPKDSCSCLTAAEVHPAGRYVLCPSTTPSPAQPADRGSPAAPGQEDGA
- assay: AXL (human catalytic domain) Enzyme Activity Assay (IMAP fluorescence polarisation)
- Type: biochemical
- condition: further data set (WW-001 through WW-169, XX-001 through XX-469, YY-001 through YY-016, ZZ-001 through ZZ-003); 150 μM ATP
The reader will find reported IC50 values listed item by item below.

Reference set (2 entries):
c1cc(-c2ccc3c(c2)OCCO3)n2nc(Nc3ccc(OCCN4CCCCC4)cc3)nc2c1 : ≤ 100 nM
Cc1ncsc1CNc1cccc(-c2cccc3nc(Nc4ccc(OCCN5CCCC5)cc4)nn23)c1 : ≤ 100 nM

Item: O=S(=O)(CCC(F)(F)F)n1cc(-c2cccc3nc(Nc4ccc(OCCN5CCCC5)cc4)nn23)cn1 | IC50: ≤ 100 nM

Item: CC(CNc1cccc(Nc2nc3cccc(-c4ccc5c(c4)OCCO5)n3n2)c1)N1CCCC1 (stereo not shown) | IC50: 100 to 1000 nM

Item: OCc1cccc(-c2cccc3nc(Nc4ccc(OCCN5CCCC5)cc4)nn23)c1 | IC50: ≤ 100 nM

Item: O=C(Nc1nc2cccc(-c3ccn[nH]3)n2n1)C1CC1 | IC50: 1000 to 10000 nM

Item: FC1(F)CCN(CCOc2ccc(Nc3nc4cccc(-c5ccc6c(c5)OCCO6)n4n3)cc2)C1 | IC50: 1000 to 10000 nM

Item: c1cc(-c2ccc3c(c2)OCCO3)n2nc(Nc3cnc(OCCN4CCCCC4)nc3)nc2c1 | IC50: 1000 to 10000 nM

Item: O=C(Nc1nc2cccc(-c3cccc(-n4cccn4)c3)n2n1)C1CC1 | IC50: 1000 to 10000 nM

Item: O=S(=O)(c1ccccc1Cl)n1cc(-c2cccc3nc(Nc4ccc(OCCN5CCCC5)cc4)nn23)cn1 | IC50: ≤ 100 nM

Item: COc1ccc(-c2cccc3nc(NC(C)=O)nn23)cc1 | IC50: 1000 to 10000 nM

Item: O=C(Cn1cc(-c2cccc3nc(Nc4ccc(OCCN5CCCC5)cc4)nn23)cn1)Nc1cccc(Cl)c1 | IC50: 100 to 1000 nM

Item: Cc1ccc(S(=O)(=O)Nc2ccc(-c3cccc4nc(Nc5ccc(OCCN6CCCC6)cc5)nn34)cc2)cc1 | IC50: 100 to 1000 nM

Item: CCC(C)S(=O)(=O)n1cc(-c2cccc3nc(Nc4ccc(OCCN5CCCC5)cc4)nn23)cn1 (stereo not shown) | IC50: ≤ 100 nM

Item: COc1ccc(CNc2cccc3nc(NC(=O)C4CC4)nn23)cc1 | IC50: 1000 to 10000 nM

Item: COc1ccc(-c2cccc3nc(Nc4ccc5c(c4)OCCN5C)nn23)cc1 | IC50: 100 to 1000 nM

Item: O=C(Nc1nc2cccc(-c3cccs3)n2n1)C1CC1 | IC50: 1000 to 10000 nM

Item: CCCCCCS(=O)(=O)n1cc(-c2cccc3nc(Nc4ccc(OCCN5CCCC5)cc4)nn23)cn1 | IC50: 100 to 1000 nM

Item: CS(=O)(=O)c1cccc(-c2cccc3nc(Nc4ccc(OCCN5CCCC5)cc4)nn23)c1 | IC50: 100 to 1000 nM

Item: O=C(NCc1ccc(Cl)cc1)c1cccc(-c2cccc3nc(Nc4ccc(OCCN5CCCC5)cc4)nn23)c1 | IC50: 1000 to 10000 nM

Item: CC[C@H](COc1ccc(Nc2nc3cccc(-c4ccc(OC)cc4)n3n2)cc1)N1CCCC1 | IC50: ≤ 100 nM

Item: CCOC(=O)c1cccc(-c2cccc3nc(Nc4ccc(OCCN5CCCC5)cc4)nn23)c1 | IC50: 1000 to 10000 nM

Item: NCCCNc1ccc(-c2cccc3nc(NC(=O)C4CC4)nn23)cc1 | IC50: 1000 to 10000 nM

Item: Oc1cccc(-c2cccc3nc(Nc4ccc(OCCN5CCCC5)cc4)nn23)c1 | IC50: 100 to 1000 nM
